System: ATP;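 further: ATP exposure 15 min at 22 °C before imaging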
PROCEDURE DETAILS: switch fluorescence ratio, 500 uM ATP over buffer (Cy3 cluster intensity, sum of 5 cycles each) (fold (ratio)); higher = stronger signal-on switching upon ATP binding; sequences stand for … in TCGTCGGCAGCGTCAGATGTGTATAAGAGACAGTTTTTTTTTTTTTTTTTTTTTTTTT…TC
CONDITION NOTES: aptamer strand: ATP DNA aptamer (quencher-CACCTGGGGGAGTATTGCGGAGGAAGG + anchor), 100 nM annealed; ATP concentration: 500 uM
List of switch fluorescence ratio values.
METRIC: switch fluorescence ratio

1. GTAAGTAGGA ... 1
2. TAAGGGTCAG ... 0.995
3. ACAATTGATG ... 1
4. TTTGGCGCGA ... 1.43
5. ATAGGGGA ... 0.989
6. TTTCCCGGGT ... 1.01
7. AAAAAAGGGA ... 0.995
8. GTTTTACCTG ... 1
9. AGAACCTCTT ... 1.06
10. CGTGACAGAG ... 0.992
11. GCTTGATACG ... 1.06
12. AAGGTAAGGT ... 1
13. GTAGGGCGCG ... 1.02
14. GGGGGAAGTC ... 1.01
15. TCAGATTAGC ... 0.998
16. GGGTATCGAG ... 1.01
17. GGTTGAGCTC ... 0.973
18. TGGACCAGTT ... 1.01
19. AATTCCCTTT ... 0.995
20. GTGATTGCTA ... 0.988
21. TATTTTAATC ... 1.04
22. GCCATTGTGG ... 0.99
23. GGCGTGCCGA ... 1.01
24. CGATGGGGGG ... 0.982
25. GGGAAGTTGG ... 0.986
26. CTTAGAATCG ... 1
27. CCAGGTTTTT ... 1.04
28. CCGGGGGCTA ... 2.69
29. GTAAAAGGGG ... 0.996
30. TTTTAAAACA ... 1.02
31. GGGGTTAAAA ... 0.973
32. CGGTTGTGAA ... 0.963
33. ATGGCTGGGC ... 1
34. AAAAACGCTG ... 1.04
35. TTGAAAAAGG ... 0.968
36. AACAGGTTTT ... 1
37. TTTTTAACGA ... 0.969
38. TGGGGGTCGT ... 1.02
39. TTATGAGGGT ... 0.982
40. AAAAGATGGG ... 1.02
41. GGTTGGATTA ... 0.979
42. AGCTAGCCTT ... 1.02
43. TATATATAGG ... 1
44. AAAAGGACTT ... 0.994
45. GACCTTTTT ... 1.02
46. CGGGGGAGTG ... 0.975
47. TGGATAAGAG ... 0.975
48. TGGTCGGGGC ... 0.974
49. TTGGTGGTTT ... 0.988
50. CAACCCATCT ... 0.992
51. AGGGGCCCGT ... 0.99
52. AATGCCGGCC ... 1.08
53. GTATATCCGG ... 0.975
54. TGGTCAGCTT ... 0.994
55. AAATTTAATC ... 1.02
56. TTTCCGTGAG ... 1.63
57. CCAGACATGA ... 1.02
58. ACGAGTTCAT ... 0.999
59. TGGATTACGT ... 1.02
60. TTATAATTTT ... 0.965
61. TTGGTTGTAT ... 1
62. TACGGGGGAA ... 1.26
63. TTGAGGGATC ... 1.01
64. AAGGGACTCG ... 1.04
65. TACAAGTCAA ... 1.02
66. AAAACTTTTT ... 1.04
67. ATTGTGGAGA ... 1.03
68. TAGTAGAGTT ... 1
69. TCGTACTGAC ... 1.03
70. CGTGTGAGGG ... 1.01
71. TTGGTTTTAG ... 1
72. TTTATGAGCA ... 0.998
73. TCGCGACTTG ... 0.995
74. AAAATGCGAG ... 1
75. AAAAGAGCCC ... 1.02
76. TTAAAAGCGG ... 1.03
77. TGGACATGGT ... 0.986
78. ATTTTTGAGC ... 1.04
79. TCGTGCGCTG ... 0.997
80. TAGAATTATC ... 1.02
81. GTTAGCTTGC ... 0.996
82. AGACGGTCTG ... 0.973
83. GATGTAACAC ... 1.07
84. TCAGGATTTC ... 1
85. TGATAGGGGA ... 1.01
86. TGACGACCGC ... 3.33

----------
Tested on: ATP;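 further: ATP exposure 15 min at 22 °C before imaging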
PROCEDURE DETAILS: switch fluorescence ratio, 500 uM ATP over buffer (Cy3 cluster intensity, sum of 5 cycles each) (fold (ratio)); higher = stronger signal-on switching upon ATP binding; sequences stand for … in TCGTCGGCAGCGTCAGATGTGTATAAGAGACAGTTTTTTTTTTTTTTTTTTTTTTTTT…TC
CONDITION NOTES: aptamer strand: ATP DNA aptamer (quencher-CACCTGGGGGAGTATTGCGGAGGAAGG + anchor), 100 nM annealed; ATP concentration: 500 uM
METRIC: switch fluorescence ratio

1) GAGAGGGGGG ... 1
2) TAAATACTAT ... 1.01
3) ATGGGTCCGG ... 1.02
4) TGTTGCGTGC ... 1.03
5) TCCGGTGACG ... 0.968
6) TGGGAATAGT ... 1
7) TCAGGATGGC ... 1.13
8) ATGGGAGCTG ... 0.983
9) AAGGTGGGTG ... 0.999
10) AAGAGGAAAA ... 1
11) AGGCAGAACG ... 1.05
12) ATAGTGGGGT ... 0.987
13) CTGATGTGTA ... 0.965
14) CCTAAATTTT ... 1.01
15) GTTTTATTGC ... 0.975
16) ATTAATCTTG ... 1.03
17) AAGAACGGCG ... 1.01
18) TTTTACCGTA ... 1.04
19) TTCTGAGGGA ... 1
20) ATGGGGTTTG ... 0.974
21) ACTAATGTGG ... 0.996
22) TTTACTTGGG ... 0.977
23) GGCATCGTAA ... 1.01
24) TCACGGGGGA ... 1.03
25) CAATATTCTT ... 1.02
26) ATCATGCCTA ... 0.989
27) CTTAGAAAGC ... 1.05
28) TTGATTGGCG ... 1.07
29) CATGGGATGC ... 1.08
30) GGGGCATGTA ... 1
31) CCGTATATAT ... 2.55
32) TGTTTGTAGA ... 1.03
33) TAAAAGCGGG ... 1
34) AGGGTAGGTC ... 1.06
35) ATAGTTAAAT ... 0.943
36) GCGTCAATTG ... 1.02
37) CGTGTGGTAG ... 0.992
38) TGATTGCTAT ... 1.01
39) GCAACATTTT ... 1.01
40) GAAAAAGGGA ... 0.979
41) CGAAATGGCA ... 1.03
42) AACGGCGCAT ... 1.02
43) ATTTAAGTGT ... 1

----------
Test system: ATP;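 further: ATP exposure 15 min at 22 °C before imaging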
PROCEDURE DETAILS: switch fluorescence ratio, 500 uM ATP over buffer (Cy3 cluster intensity, sum of 5 cycles each) (fold (ratio)); higher = stronger signal-on switching upon ATP binding; sequences stand for … in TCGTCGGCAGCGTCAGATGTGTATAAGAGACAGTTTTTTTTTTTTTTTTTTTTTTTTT…TC
CONDITION NOTES: aptamer strand: ATP DNA aptamer (quencher-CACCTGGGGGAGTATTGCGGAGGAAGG + anchor), 100 nM annealed; ATP concentration: 500 uM
METRIC: switch fluorescence ratio

1. CGCGCGATTA ... 1.02
2. CGGGGTCGTA ... 1
3. GGATGTTTCG ... 1.02
4. AGTTAGGTAG ... 0.994
5. TTGGTTTTGA ... 0.988
6. CGGGTGGGAG ... 0.991
7. AATCGTACAG ... 1.07
8. CTGTGCGCCC ... 1.09
9. CAAAGCTGGG ... 1.05
10. TGACTGCTGG ... 1.01
11. TTTGACGTTT ... 1.02
12. ATTTGGGCAT ... 0.994
13. AGCGGAGGGG ... 1.04
14. GACATTTGGA ... 1.02
15. GCTTGAAGTT ... 0.991
16. GGGGTTAAGT ... 0.98
17. TTTGCATTGT ... 1.03
18. GCTGGGGTTA ... 0.996
19. ATGTAGCGGT ... 1.12
20. GAGGGCCTCA ... 1
